Target: HLA-DRB1*15:01 (Homo sapiens, UniProt P01903+P01911)
Construct: HLA-DR heterodimers were purified from homozygous Epstein–Barr virus B-lymphoblastoid cell lines; host or cells: homozygous EBV B-lymphoblastoid cell line
Test: Peptide/HLA-DR binding, competitive ELISA
Settings: ratio IC50 of peptide / IC50 of reference peptide A3 152–166, lower = higher affinity, ratio 20 or less high, 20–100 moderate, three independent experiments
Below is a list of entries, each paired with its recorded Relative binding affinity of peptide to HLA-DR molecules DRB1*1501 value.
MEASURED METRIC: Relative binding affinity of peptide to HLA-DR molecules DRB1*1501

INSERT INTO results (substance, censoring_operator, quantitative_result) VALUES
  ('10: SseB overlapping library peptide, residues 91–110 (GDAKTKEEVPEDVIKYMRDN) [Peptide 10]', '=', 58),
  ('17: SseB overlapping library peptide, residues 161–180 (TIQKMSQELNAVLTQLTGLI) [Peptide 17]', '>', 270),
  ('14: SseB overlapping library peptide, residues 131–150 (KLDKGGLQAIKAALDNDANR) [Peptide 14]', '=', 10),
  ('13: SseB overlapping library peptide, residues 121–140 (DYMAKYGDHGKLDKGGLQAI) [Peptide 13]', '=', 12),
  ('16: SseB overlapping library peptide, residues 151–170 (NTDLMSQGQITIQKMSQELN) [Peptide 16]', '>', 270),
  ('6: SseB overlapping library peptide, residues 51–70 (MVIQAIANNKFIEVQKNAER) [Peptide 6]', '=', 1),
  ('12: SseB overlapping library peptide, residues 111–130 (GILIDGMTIDDYMAKYGDHG) [Peptide 12]', '=', 12),
  ('9: SseB overlapping library peptide, residues 81–100 (MDEVIAKAAKGDAKTKEEVP) [Peptide 9]', '=', 200);

Values were extracted from paper PMC4212957.
